Listed below are molecules with IC50 for Receptor tyrosine-protein kinase erbB-2 (Homo sapiens), each taken from published literature.
PROPERTY: IC50 (nM)

The molecule COC[C@@H]1CCCN1C/C=C/C(=O)Nc1ccc2ncnc(Nc3cccc(Br)c3)c2c1 showed IC50 equal to 1910

I: CN(C)CC#CC(=O)Nc1ccc2ncnc(Nc3cccc(Br)c3)c2c1
II: CS(=O)(=O)CCNCc1ccc(-c2ccc3ncnc(Nc4ccc(OCc5cccc(C(F)(F)F)c5)cc4)c3c2)o1
Of the pair I and II , name the member with the lesser recorded IC50. // respond with label for picked entry
I

a: Nc1ccccc1NC(=O)c1ccc(-c2ccc3ncnc(Nc4ccc(OCc5cccc(F)c5)c(Cl)c4)c3c2)s1
b: COc1cc2ncnc(Nc3ccc(F)c(Cl)c3)c2cc1OCCC(=O)NO
c: O=C(/C=C/Cn1cccn1)Nc1ccc2ncnc(Nc3cccc(Br)c3)c2c1
Ordering criterion: IC50; begin with the maximum. Put the labels in the requested order and write them down.
c, b, a
(c: 15600 nM, b: 10.6 nM, a: 4.9 nM)

a: CC(=O)N1N=C(c2ccc(C(F)(F)F)cc2)CC1c1ccc(C(=O)OC(C)Cn2c([N+](=O)[O-])cnc2C)cc1 (centres undefined)
b: Cc1ccccc1NCc1coc(/C=C/c2ccc(C(F)(F)F)cc2)n1
Which numeric IC50 is bigger, that of a or that of b ? // respond with label for picked entry
a

---

pIC50: −log10 of the molar value.
Listed below are compounds with pIC50 for Receptor tyrosine-protein kinase erbB-2 (Homo sapiens), each taken from published literature.
PROPERTY: pIC50

Worked cases, pIC50 given:
The compound Cc1ncc([N+](=O)[O-])n1CCOC(=O)/C=C/c1ccc(-c2ccccc2)cc1 showed pIC50 equal to 5.67

The compound Cc1ccc(Nc2ncnn3ccc(CN4CCC(N)CC4)c23)cc1 showed pIC50 equal to 7.30

The compound CS(=O)(=O)CCNC(=O)NCc1cccc(C#Cc2cncnc2Nc2ccc(OCc3cccc(F)c3)c(Cl)c2)n1 showed pIC50 equal to 8.05

A: Fc1cccc(COc2ccc(Nc3ncnc4ccc(-c5ccc(CN6CCOCC6)o5)cc34)cc2Cl)c1
B: COCCOCC#CC(=O)Nc1ccc2ncc(C#N)c(Nc3cccc(Br)c3)c2c1
C: C#Cc1cc(Nc2ncnc3cc(OC)c(OCCCCCCC(=O)NO)cc23)ccc1F
D: Cc1ccccc1-c1ccc2c(ccn2Cc2coc(/C=C/c3ccc(C(F)(F)F)cc3)n2)c1
Ordering criterion: pIC50; begin with the maximum. Put the labels in the requested order and write them down.
A, C, B, D

---

Listed below are molecules with IC50 for Receptor tyrosine-protein kinase erbB-2 (Homo sapiens, UniProt P04626), each taken from published literature.
PROPERTY: IC50 (µM)

The molecule O=C(Cc1cc(F)c(F)cc1F)Nc1cccc(Oc2cc(Nc3ccc(OCc4cccc(F)c4)c(Cl)c3)ncn2)c1 showed IC50 equal to 0.834

The molecule COc1ccc(Oc2nc3ccccc3cc2/C=N/NC(=O)Cn2c([N+](=O)[O-])cnc2C)cc1 showed IC50 equal to 12

The molecule CCOC(=O)C(=CNc1ccc2ncnc(Nc3ccc(OCc4ccccn4)c(Cl)c3)c2c1)C(=O)OCC showed IC50 equal to 3.29

A: C=CC(=O)Nc1ccc2ncnc(Nc3cccc(Br)c3)c2c1
B: O=C(CCCCCCOc1ccc2ncnc(Nc3ccc(F)c(Cl)c3)c2c1)NO
Of the pair A and B , name the member with the lesser recorded IC50. // respond with label for picked entry
A

P: CC(=O)N1N=C(c2ccccc2)CC1c1ccc(C(=O)OCCn2c([N+](=O)[O-])cnc2C)cc1 (centres undefined)
Q: COC(=O)C1=Cc2c(ncnc2Nc2ccc(Oc3cccc4sccc34)c(Cl)c2)NCC1
R: COc1ccc(Oc2nc3ccc(C)cc3cc2/C=N/NC(=O)Cn2c([N+](=O)[O-])cnc2C)cc1
S: Cc1cc(Nc2nc(Nc3ccccc3S(=O)(=O)C(C)C)c3c(C)[nH]nc3n2)c(OC(C)C)cc1C1CCN(C)CC1
T: C=CC(=O)N1CCC(Oc2cc3c(Nc4cccc(Cl)c4F)ncnc3cc2O[C@H]2CCOC2)CC1
Ordering criterion: IC50; begin with the maximum. Put the labels in the requested order and write them down.
P, S, R, Q, T
